- System: Pseudomonas aeruginosa
- assayMethodText: Antimicrobial activity against Pseudomonas aeruginosa 65.33-2 tracheal isolates from mechanically ventilated tuberculosis patient
- Assay type: functional, organism-based
- particulars: Trachea
Activity calls are given as the source filed them. The rule behind the calls is not given here.
The reply should be one of these categories: true (1) = active, false (0) = inactive

Recorded results for 5 molecules are shown here.
C[C@@H](O)[C@H]1C(=O)N2C(C(=O)O)=C(S[C@@H]3CN[C@H](C(=O)N(C)C)C3)[C@H](C)[C@H]12 :: false (0)
CO/N=C(\C(=O)N[C@@H]1C(=O)N2C(C(=O)[O-])=C(C[N+]3(C)CCCC3)CS[C@H]12)c1csc(N)n1 :: true (1)
CCn1cc(C(=O)O)c(=O)c2cc(F)c(N3CCNCC3)cc21 :: true (1)
C[C@@H](O)[C@H]1C(=O)N2C(C(=O)O)=C(SCCNC=N)C[C@H]12 :: false (0)
NC[C@H]1O[C@H](O[C@H]2[C@H](O)[C@@H](O[C@H]3O[C@H](CO)[C@@H](O)[C@H](N)[C@H]3O)[C@H](N)C[C@@H]2N)[C@H](N)C[C@@H]1O :: true (1)

Assay outcome for CCN1CCN(C(=O)N[C@@H](C(=O)N[C@@H]2C(=O)N3[C@@H]2SC(C)(C)[C@@H]3C(=O)O)c2ccccc2)C(=O)C1=O : what was it?
true (1)

I'd appreciate the recorded outcome for O=C(O)c1cn(C2CC2)c2cc(N3CCNCC3)c(F)cc2c1=O from this test.
true (1)

Please share the test call associated with CC(C)(O/N=C(\C(=O)N[C@@H]1C(=O)N2C(C(=O)[O-])=C(C[n+]3ccccc3)CS[C@H]12)c1csc(N)n1)C(=O)O .
true (1)
